Target: native human Bradykinin B1 receptor (Homo sapiens)
Construct: which express native human Bradykinin B1 receptor after induction with human IL-10; Coriell Institute
Sequence (P46663 whole entry): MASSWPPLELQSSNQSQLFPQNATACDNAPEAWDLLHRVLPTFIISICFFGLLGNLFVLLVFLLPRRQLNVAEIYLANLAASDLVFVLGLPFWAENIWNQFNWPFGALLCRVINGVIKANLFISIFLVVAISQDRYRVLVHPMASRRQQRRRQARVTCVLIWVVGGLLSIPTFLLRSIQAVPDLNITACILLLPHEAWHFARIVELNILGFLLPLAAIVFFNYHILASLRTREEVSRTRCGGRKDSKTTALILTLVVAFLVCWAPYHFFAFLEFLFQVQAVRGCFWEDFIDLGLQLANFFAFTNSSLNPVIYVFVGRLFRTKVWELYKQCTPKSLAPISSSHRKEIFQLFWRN
Test: Calcium flux Assay (FLIPR) with human fibroblasts expressing Bradykinin B1 receptor (hB1 IMR-90)
Conditions: IMR-90 human fibroblasts expressing native Bradykinin B1 receptor
quantityName: IC50 (nM)
# number only, unit nM dropped from output

Guide cases for IC50, answers given:
# compound, IC50 [nM]
measured = [
    ("O=C(Nc1ccc(-c2ccc(C(F)(F)F)nc2)c(-c2nnn[nH]2)c1)C1(c2ccc(OC(F)(F)F)cc2)CC1", 15.7),
    ("COc1cncc(-c2ccc(NC(=O)C3(c4cccc(Cl)c4)CC3)cc2-c2nnn[nH]2)c1", 18.6),
    ("CCn1cc(-c2ccc(NC(=O)C3(c4cccc(Cl)c4)CC3)cc2-c2nnn[nH]2)cn1", 38.8),
    ("CCOc1ccc(-c2cc(O)c(NC(=O)C3(c4cccc(Cl)c4)CC3)cc2-c2nnn[nH]2)cn1", 33.8),
    ("COCc1ccc(-c2ccc(NC(=O)C3(c4cccc(Cl)c4)CC3)cc2-c2nnn[nH]2)cn1", 26),
]

Kindly note the recorded IC50 for CCOc1ccc(-c2ccc(NC(=O)C3(c4ccc(C(F)(F)F)cc4)CC3)cc2-c2nnn[nH]2)cc1OC , which is 19.4

What the record says about CCOc1cncc(-c2ccc(NC(=O)C3(c4ccc(C(F)(F)F)cc4)CC3)cc2-c2nnn[nH]2)c1 : IC50 is 84.6

Value source: patent US20210317092A1
